Test system: T24 (bladder) human-derived tumor cell line
Assay: MTT reduction antiproliferative assay, T24 bladder cells
Type: cell-based
Conditions: 48 h incubation, mean of at least three experiments, read-out: EC50 ± SEM T24
pEC50: −log10 of the molar value.
measured_quantity: pEC50

[[record]]
molecule = "COc1cccc(C(=O)c2cc(O)ccc2O)c1 [compound 7]"
quantitative_readout = 3.68

[[record]]
molecule = "COc1cccc(C(=O)c2cc(O)c3ccccc3c2O)c1 [compound 17]"
quantitative_readout = 3.88

[[record]]
molecule = "Cc1ccccc1C(=O)c1cc(O)c2ccccc2c1O [compound 14]"
quantitative_readout = 3.84

[[record]]
molecule = "COc1ccc(OC)c(C(=O)c2cc(O)c3ccccc3c2O)c1 [compound 19]"
quantitative_readout = 3.89

[[record]]
molecule = "COc1ccc(OC)c(C(=O)c2cc(O)ccc2O)c1 [compound 9]"
quantitative_readout = 3.82


[P] COc1cc(C(=O)c2cc(O)c3ccccc3c2O)cc(OC)c1OC [compound 22]
[Q] Cc1ccc(C(=O)c2cc(O)c3ccccc3c2O)cc1 [compound 16]
// compare measured pEC50, left P , right Q , return larger Return value: the label identifying the chosen record. P
(P: 4.87, Q: 3.87)
